Listing: Number of mice that died on each day after infection: day 4 of selected molecules
- System: Escherichia coli ATCC 25922
- protocol summary: Oral formulations on mice with systemic bacterial infection
- Format: in vivo, ICR mice
- test conditions: 1 mg/kg gavage, three times a day for 7 days, n = 10
Non-standard residues stand in square brackets, D forms with d. Residues, ends and D or L forms follow the SMILES beside them. d2Nal = N[C@H](Cc1ccc2ccccc2c1)C(=O)O
Unit Mouse implied. Number only.

Previously resolved entries follow.
* CC(=O)N[C@H](CCCNC(=N)N)C(=O)N[C@H](CCCCN)C(=O)N[C@H](CC(C)C)C(=O)N[C@H](CC(C)C)C(=O)N[C@H](Cc1ccc2ccccc2c1)C(=O)N[C@H](CCCNC(=N)N)C(=O)N[C@H](CC(C)C)C(=O)N[C@H](CCCCN)C(=O)N[C@H](Cc1ccccc1)C(=O)N[C@H](CCCNC(=N)N)C(=O)N[C@H](CCCCN)C(N)=O [LV-4] (Ac-[dR][dK][dL][dL][d2Nal][dR][dL][dK][dF][dR][dK]-NH2) | 0
* CC(=O)N[C@H](CCCNC(=N)N)C(=O)N[C@H](CCCCN)C(=O)N[C@H](CC(C)C)C(=O)N[C@H](CC(C)C)C(=O)N[C@H](Cc1ccc2ccccc2c1)C(=O)N[C@H](CCCNC(=N)N)C(=O)N[C@H](CC(C)C)C(=O)N[C@H](CCCCN)C(=O)N[C@H](Cc1ccc2ccccc2c1)C(=O)N[C@H](CCCNC(=N)N)C(=O)N[C@H](CCCCN)C(N)=O [LV-20] (Ac-[dR][dK][dL][dL][d2Nal][dR][dL][dK][d2Nal][dR][dK]-NH2) | 1

Let's switch to this molecule now.
Query: Entry CC(=O)N[C@H](CCCNC(=N)N)C(=O)N[C@H](CCCCN)C(=O)N[C@H](CC(C)C)C(=O)N[C@H](CC(C)C)C(=O)N[C@H](Cc1ccc2ccccc2c1)C(=O)N[C@H](CCCNC(=N)N)C(=O)N[C@H](CC(C)C)C(=O)N[C@H](CCCCN)C(=O)N[C@H](Cc1ccc2ccccc2c1)C(=O)N[C@H](CCCNC(=N)N)C(=O)N[C@H](CCCNC(=N)N)C(N)=O [LV-22] (Ac-[dR][dK][dL][dL][d2Nal][dR][dL][dK][d2Nal][dR][dR]-NH2) : reported Number of mice that died on each day after infection: day 4 = ?
Reply: 0

---

Listing: Number of mice that died on each day after infection: day 4 of selected compounds
- Test system: Escherichia coli ATCC 25922
- protocol summary: Oral formulations on mice with systemic bacterial infection
- Assay type: in vivo, ICR mice
- test conditions: 1 mg/kg gavage, three times a day for 7 days, n = 10
Non-standard residues stand in square brackets, D forms with d. Residues, ends and D or L forms follow the SMILES beside them. dPhe(4-CF3) = N[C@H](Cc1ccc(C(F)(F)F)cc1)C(=O)O; d2Nal = N[C@H](Cc1ccc2ccccc2c1)C(=O)O
Unit Mouse implied. Number only.

• CC(=O)N[C@H](CCCNC(=N)N)C(=O)N[C@H](CCCNC(=N)N)C(=O)N[C@H](CC(C)C)C(=O)N[C@H](CC(C)C)C(=O)N[C@H](Cc1ccc2ccccc2c1)C(=O)N[C@H](CCCNC(=N)N)C(=O)N[C@H](CC(C)C)C(=O)N[C@H](CCCNC(=N)N)C(=O)N[C@H](Cc1ccc2ccccc2c1)C(=O)N[C@H](CCCNC(=N)N)C(=O)N[C@H](CCCNC(=N)N)C(N)=O [LV-1] (Ac-[dR][dR][dL][dL][d2Nal][dR][dL][dR][d2Nal][dR][dR]-NH2) = 0

Let's switch to this compound now.
Query: Entry CC(=O)N[C@H](CCCNC(=N)N)C(=O)N[C@H](CCCCN)C(=O)N[C@H](CC(C)C)C(=O)N[C@H](CC(C)C)C(=O)N[C@H](Cc1ccc(C(F)(F)F)cc1)C(=O)N[C@H](CCCCN)C(=O)N[C@H](CC(C)C)C(=O)N[C@H](CCCCN)C(=O)N[C@H](Cc1ccc(C(F)(F)F)cc1)C(=O)N[C@H](CCCCN)C(=O)N[C@H](CCCNC(=N)N)C(N)=O [LV-9] (Ac-[dR][dK][dL][dL][dPhe(4-CF3)][dK][dL][dK][dPhe(4-CF3)][dK][dR]-NH2) : reported Number of mice that died on each day after infection: day 4 = ?
Reply: 1
